system.under.test: D(2) dopamine receptor (Rattus norvegicus, UniProt P61169)
Sequence (P61169 whole entry): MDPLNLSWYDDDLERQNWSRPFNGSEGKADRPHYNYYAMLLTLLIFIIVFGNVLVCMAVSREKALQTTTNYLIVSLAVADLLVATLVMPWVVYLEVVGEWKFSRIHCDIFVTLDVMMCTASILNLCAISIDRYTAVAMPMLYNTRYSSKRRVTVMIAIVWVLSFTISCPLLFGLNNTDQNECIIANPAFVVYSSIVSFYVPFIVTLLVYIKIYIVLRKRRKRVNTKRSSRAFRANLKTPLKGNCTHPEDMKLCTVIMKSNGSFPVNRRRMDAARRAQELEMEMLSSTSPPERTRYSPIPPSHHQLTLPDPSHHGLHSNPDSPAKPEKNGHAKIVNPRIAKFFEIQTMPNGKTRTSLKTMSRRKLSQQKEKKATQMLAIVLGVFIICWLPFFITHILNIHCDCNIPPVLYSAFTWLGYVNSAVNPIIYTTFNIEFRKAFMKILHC
assay.explanation: Binding affinity against [3H]raclopride-labeled dopamine receptor D2 in rat striatum.
Assay type: tissue-based
pKi: −log10 of the molar value.
Short version: pKi at least 7 is Fulfilled, less is Not fulfilled.

As a guide, the following entries are already answered.
molecule	answer.label
CCCN1CC[C@@H]2c3cccc(O)c3CC[C@H]21 (racemic)	Fulfilled
COc1cccc2c1CC[C@@H]1[C@H]2CCN1CC1CC1 (racemic)	Not fulfilled
C=CCN1CC[C@H]2c3cccc(O)c3CC[C@H]21 (racemic)	Not fulfilled
CCCN1CC[C@@H]2c3c(cccc3OC)CC[C@@H]21	Not fulfilled
CCCN1CCC2c3c(cccc3OC)CCC21 (racemic)	Not fulfilled

Query: Would you say CCCN1CC[C@H]2c3cccc(O)c3CC[C@H]21 (racemic) shows pKi at minimum 7?
Reply: Not fulfilled

Query: Would you say C=CCN1CCC2c3cccc(OC)c3CC[C@H]21 (mixture of isomers) shows pKi at minimum 7?
Reply: Fulfilled

Query: Would you say C=CCN1CCC2c3cccc(O)c3CC[C@@H]21 (single isomer, unassigned; (+)) shows pKi at minimum 7?
Reply: Not fulfilled

Query: Would you say CCCN(CCC)C1CCc2cccc(O)c2C1 (centres undefined) shows pKi at minimum 7?
Reply: Not fulfilled

Query: Would you say "C=CCN1CC[C@H]2c3cccc(OC)c3CC[C@H]21" shows pKi at minimum 7?
Reply: Fulfilled

Query: Would you say C=CCN1CCC2c3cccc(O)c3CC[C@H]21 (single isomer, unassigned; (-)) shows pKi at minimum 7?
Reply: Fulfilled

Query: Would you say COc1cccc2c1CC[C@@H]1[C@@H]2CCN1CC1CC1 (racemic) shows pKi at minimum 7?
Reply: Not fulfilled

Value source: ChEMBL document CHEMBL1127015
